meta.source: paper PMC7024345

# studyTarget: eeAChE (AChE from electrophorus electricus) (Electrophorus electricus, UniProt O42275)
# Construct: purchased Sigma-Aldrich (St. Louis, MO, USA)
# Sequence (O42275 24-633): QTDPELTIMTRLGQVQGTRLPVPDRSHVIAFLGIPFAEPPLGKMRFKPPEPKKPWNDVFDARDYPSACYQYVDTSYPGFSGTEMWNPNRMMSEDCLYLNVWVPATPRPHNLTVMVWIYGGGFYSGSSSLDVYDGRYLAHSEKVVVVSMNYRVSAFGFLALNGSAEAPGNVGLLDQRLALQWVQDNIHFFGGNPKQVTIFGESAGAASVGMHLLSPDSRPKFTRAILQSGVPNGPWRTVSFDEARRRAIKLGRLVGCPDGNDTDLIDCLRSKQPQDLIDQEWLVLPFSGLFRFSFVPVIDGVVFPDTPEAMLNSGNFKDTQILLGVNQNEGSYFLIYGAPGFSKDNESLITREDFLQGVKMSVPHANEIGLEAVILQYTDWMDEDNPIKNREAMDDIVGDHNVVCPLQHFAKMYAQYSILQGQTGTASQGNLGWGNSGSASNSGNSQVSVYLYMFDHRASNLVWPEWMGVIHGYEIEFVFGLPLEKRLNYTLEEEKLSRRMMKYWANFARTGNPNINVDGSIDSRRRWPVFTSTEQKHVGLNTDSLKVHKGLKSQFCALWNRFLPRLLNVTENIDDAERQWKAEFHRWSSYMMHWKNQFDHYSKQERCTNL
# assayNotes: biochemical
# Assay type: biochemical
# cond: IC50 eeAChE, mean (CI 95%), Ellman's method, ATCI substrate, 30 °C
// reported pIC50 per item
Scale for pIC50: -log10 of concentration given in mol/L; no unit attached.

                               smilesstring                               studytarget  measvalue
0  O=C(Cc1ccc(O)c(O)c1)NCCCCCC[P+](c1ccccc1)(c1ccccc1)c1ccccc1  eeAChE (AChE from electrophorus electricus) (Electrophorus electricus, UniProt O42275)       5.41

pIC50 reading for O=C(CCc1ccc(O)c(O)c1)NCCCCCC[P+](c1ccccc1)(c1ccccc1)c1ccccc1 : 5.97

pIC50 reading for O=C(CCc1cc(O)c(O)c(O)c1)NCCCCCC[P+](c1ccccc1)(c1ccccc1)c1ccccc1 : 5.17

pIC50 reading for O=C(CCc1cc(O)c(O)c(O)c1)NCCCCCCCCCC[P+](c1ccccc1)(c1ccccc1)c1ccccc1 : 5.24

---

// reported pIC50 per item
# studyTarget: eeAChE (AChE from electrophorus electricus) (Electrophorus electricus, UniProt O42275)
# Construct: purchased Sigma-Aldrich (St. Louis, MO, USA)
# assayNotes: biochemical
# Assay type: biochemical
# cond: Ellman's method, ATCI substrate, 30 °C; read-out: IC50 eeAChE, mean (CI 95%)
Scale for pIC50: -log10 of concentration given in mol/L; no unit attached.

>>> df
                                   compound  measvalue
0  O=C(/C=C/c1ccc(O)c(O)c1)NCCCCCC[P+](c1ccccc1)(c1ccccc1)c1ccccc1 [Compound 4]       5.20
1  O=C(/C=C/c1ccc(O)c(O)c1)NCCCCCCCCCC[P+](c1ccccc1)(c1ccccc1)c1ccccc1 [Compound 10]       5.44
2  O=C(CCc1ccc(O)c(O)c1)NCCCCCCCCCC[P+](c1ccccc1)(c1ccccc1)c1ccccc1 [Compound 11]       5.80
3  O=C(/C=C/c1cc(O)c(O)c(O)c1)NCCCCCC[P+](c1ccccc1)(c1ccccc1)c1ccccc1 [Compound 1]       5.53

Please turn your attention to the following entry.
pIC50 reading for O=C(/C=C/c1cc(O)c(O)c(O)c1)NCCCCCCCCCC[P+](c1ccccc1)(c1ccccc1)c1ccccc1 [Compound 7] : 5.47

---

// reported SI: selectivity index = IC50 (eeAChE)/IC50 (eqBChE) per item
# studyTarget: eqBChE (BChE from equine serum) (Equus caballus, UniProt P81908)
# Construct: BChE from equine serum (eqBChE); purchased Sigma-Aldrich (St. Louis, MO, USA); host or cells: equine serum
# Sequence (P81908 whole entry): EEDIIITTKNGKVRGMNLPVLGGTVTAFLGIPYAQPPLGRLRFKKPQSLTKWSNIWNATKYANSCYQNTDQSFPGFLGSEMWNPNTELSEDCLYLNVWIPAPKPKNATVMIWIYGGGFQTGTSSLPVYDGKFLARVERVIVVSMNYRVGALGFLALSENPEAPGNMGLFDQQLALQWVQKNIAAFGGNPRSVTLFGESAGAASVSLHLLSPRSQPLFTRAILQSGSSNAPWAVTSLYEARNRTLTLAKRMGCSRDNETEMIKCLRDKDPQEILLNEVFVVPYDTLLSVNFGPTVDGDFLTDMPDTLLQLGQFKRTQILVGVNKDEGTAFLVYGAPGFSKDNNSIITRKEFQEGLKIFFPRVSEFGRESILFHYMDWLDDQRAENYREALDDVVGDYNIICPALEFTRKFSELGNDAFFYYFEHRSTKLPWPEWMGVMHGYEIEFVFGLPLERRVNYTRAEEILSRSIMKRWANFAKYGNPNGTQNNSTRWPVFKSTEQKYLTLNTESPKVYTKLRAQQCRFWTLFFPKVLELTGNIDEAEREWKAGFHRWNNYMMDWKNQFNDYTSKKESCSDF
# assayNotes: biochemical
Enter the number alone.

>>> df
                               smilesstring  measvalue
0  O=C(CCc1cc(O)c(O)c(O)c1)NCCCCCCCCCC[P+](c1ccccc1)(c1ccccc1)c1ccccc1        7.2
1  O=C(CCc1cc(O)c(O)c(O)c1)NCCCCCC[P+](c1ccccc1)(c1ccccc1)c1ccccc1        2.1
2  O=C(CCc1ccc(O)c(O)c1)NCCCCCCCCCC[P+](c1ccccc1)(c1ccccc1)c1ccccc1        4.9
3  O=C(/C=C/c1cc(O)c(O)c(O)c1)NCCCCCC[P+](c1ccccc1)(c1ccccc1)c1ccccc1        7.2

SI: selectivity index = IC50 (eeAChE)/IC50 (eqBChE) reading for O=C(/C=C/c1ccc(O)c(O)c1)NCCCCCC[P+](c1ccccc1)(c1ccccc1)c1ccccc1 : 52.7

SI: selectivity index = IC50 (eeAChE)/IC50 (eqBChE) reading for O=C(CCc1ccc(O)c(O)c1)NCCCCCC[P+](c1ccccc1)(c1ccccc1)c1ccccc1 : 0.4

SI: selectivity index = IC50 (eeAChE)/IC50 (eqBChE) reading for O=C(/C=C/c1ccc(O)c(O)c1)NCCCCCCCCCC[P+](c1ccccc1)(c1ccccc1)c1ccccc1 : 23.9

SI: selectivity index = IC50 (eeAChE)/IC50 (eqBChE) reading for O=C(Cc1cc(O)c(O)c(O)c1)NCCCCCC[P+](c1ccccc1)(c1ccccc1)c1ccccc1 : 2.0

SI: selectivity index = IC50 (eeAChE)/IC50 (eqBChE) reading for O=C(Cc1ccc(O)c(O)c1)NCCCCCCCCCC[P+](c1ccccc1)(c1ccccc1)c1ccccc1 : 10.2

SI: selectivity index = IC50 (eeAChE)/IC50 (eqBChE) reading for O=C(/C=C/c1cc(O)c(O)c(O)c1)NCCCCCCCCCC[P+](c1ccccc1)(c1ccccc1)c1ccccc1 : 30.8

SI: selectivity index = IC50 (eeAChE)/IC50 (eqBChE) reading for O=C(Cc1ccc(O)c(O)c1)NCCCCCC[P+](c1ccccc1)(c1ccccc1)c1ccccc1 : 4.2
